# measurement_description: chemical genetic growth profiling, strain panel (AID 1159580);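 note: tested at 20 µM; growth read once vehicle control cultures reached saturation at 30 °C; 1 = growth at the plate median or of vehicle wells; lower values mean less growth of the strain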
# run_parameters: S. cerevisiae deletion strains, growth OD, locus YPL078C, strain atp4, active compounds read low
The whole screen tested about 5,500 compounds, of which about 2,000 (36%) were called active. Not shown: some 18% with an inconclusive outcome. The list shows a part of the results.
parameter: normalized growth
Number only, no unit.

Enquiry: Bench note: what normalized growth did CCN(CC)C(C)CN1c2ccccc2Sc2ccccc21 (stereo not given) show?
Return: 0.87

Enquiry: So what's the measured normalized growth for this one? CC(CCC(=O)O)[C@H]1CCC2C3CC[C@@H]4C[C@H](O)CC[C@]4(C)C3CC[C@@]21C (stereo not given in full)
Return: 0.892

Enquiry: Give its normalized growth value. Item: COc1c2ccccc2nc2occc12
Return: 0.842

Enquiry: Requested field: normalized growth. Item: CNCCCN1c2ccccc2CCc2ccccc21
Return: 1.05

Enquiry: Quick one: normalized growth of CCCCCC1C(=O)CCC1CC(=O)O (stereo not given) ?
Return: 0.979

Enquiry: I am curious: what normalized growth value has been reported for CC(CN(C)C)CN1c2ccccc2CCc2ccccc21 (stereo not given) ?
Return: 0.961

Enquiry: // normalized growth lookup, key: Nc1ccncc1
Return: 0.995

Enquiry: Requested field: normalized growth. Item: COc1cc(OC)c(OC)cc1C=O
Return: 1

Enquiry: Item CC(=O)O[C@H]1C[C@@H](OC(C)=O)C(C)(C)C2CC(=O)[C@]3(C)C(CC[C@@]4(C)[C@H](c5ccoc5)OC(=O)[C@H]5O[C@]543)[C@]21C (stereo not given in full) has what recorded normalized growth?
Return: 0.989

Enquiry: Sample Cc1ncc([N+](=O)[O-])n1CC(C)O (stereo not given) — what was its normalized growth?
Return: 0.997

Enquiry: Form field: reported normalized growth of C[C@@H]1O[C@@H](O[C@H]2C[C@@H](O)[C@]3(CO)C4C(CC[C@]3(O)C2)[C@@]2(O)CC[C@H](C3=CC(=O)OC3)[C@@]2(C)C[C@H]4O)[C@H](O)[C@H](O)[C@H]1O (stereo not given in full)
Return: 1.02

Enquiry: Could you share which normalized growth value was measured for NC(N)=O ?
Return: 1.02

Enquiry: Tell me the measured normalized growth of CC(C)CCCC(C)C1CCC2C3CC[C@H]4CCCC[C@]4(C)C3CC[C@]12C (stereo not given in full) , please.
Return: 0.996

Enquiry: If you can, please state the reported normalized growth value of CC1=C2[C@H]3OC(=O)[C@@H](C)[C@@H]3CC[C@@]2(C)C=CC1=O .
Return: 0.988

Enquiry: Form field: reported normalized growth of C=Cc1c(C)c2[n-]c1=Cc1[n-]c(c(CC)c1C)C=c1[n-]c3c(c1C)C(=O)C(C(=O)[O-])C=3c1[n-]c(c(C)c1CCC(=O)[O-])C=2.[Cu] (stereo not given)
Return: 1.03

Enquiry: Name the reported normalized growth value associated with the compound Nc1cc(C(Cl)=C(Cl)Cl)c(S(N)(=O)=O)cc1S(N)(=O)=O
Return: 1.06

Enquiry: Name the recorded normalized growth for CN[C@@H]1[C@H](OC2[C@H](O[C@H]3[C@H](O)[C@@H](O)[C@H](N=C(N)N)[C@@H](O)[C@@H]3N=C(N)N)O[C@@H](C)[C@]2(O)C=O)O[C@@H](CO)[C@H](O)[C@H]1O (stereo not given in full) .
Return: 1.04

Enquiry: # input compound: N[C@@H]1[C@@H](O)[C@H](O)[C@@H](CO)O[C@H]1O ; wanted: its normalized growth
Return: 1.03

Enquiry: I'd like to know its normalized growth. The compound in question is N#C/C(=C\c1cccc(O)c1)C(=O)O
Return: 0.991

Enquiry: Give the measured normalized growth of COc1cc(C)c(C(=O)Oc2cc(C)c(C(=O)O)c(O)c2C)c(OC)c1C .
Return: 0.986
